Reference source: PubChem BioAssay (NCI)

- Test system: HS 578T breast
- Test Summary: NCI-60 one-dose screen, 48 h (100 = growth as untreated, 0 = no growth, -100 = all killed)
- Condition Context: 10 µM unless noted
About 83,000 compounds went through this panel and 20% of them were active in at least one assay; those are over-represented in the sample as a whole.
Measured Endpoint: growth (%)
Numbers only, in %.

Record excerpt, results attached:
Cn1c(-c2nonc2NC(=O)c2ccc(F)cc2)nc2ccccc21; 110
COC(=O)c1ccc2nc(-c3cc4ccccc4n3C)n(CCCCOc3cc4c(cc3OC)C(=O)N3CCC[C@H]3C=N4)c2c1; -62.5
C=C1C(=O)O[C@H]2[C@H]1CC/C(COC(=O)NCc1cc(OC)cc(OC)c1)=C\CC[C@@]1(C)O[C@@H]21; 37.1

// for each compound below, give its growth
1. CC1=C(C#N)C(C)(C)C(C#N)=C(C)N1
2. COc1ccc(/C=c2\sc3n(c2=O)C2C(NN=3)N(C)C(=O)N2C)cc1 (centres undefined)
3. COC1=CC(c2ccc[nH]2)=N/C1=C\c1[nH]c(C)c(C(=O)CCCCC(=O)Nc2ccccc2)c1C
4. CCCCNC(=O)NS(=O)(=O)c1ccc(N2N=C(c3ccc(C)cc3C)CC2c2ccc(OC)cc2)cc1 (centres undefined)

## Result
1. 102
2. 8.08
3. 82.2
4. 87.3

// for each compound below, give its growth
1. CCn1c(=O)c2c(=O)c3c4c(oc3oc2c2ccccc21)C(=O)c1ccccc1C4=O
2. CC(=O)n1cc([C@H]2CC[C@H](c3cn(C(C)=O)c4ccccc34)c3c2[nH]c2ccccc32)c2ccccc21

## Result
1. 93.7
2. 106

* * *

- System: HS 578T breast
- Test Summary: NCI-60 one-dose screen, 48 h (100 = growth as untreated, 0 = no growth, -100 = all killed)
- Condition Context: 10 µM unless noted
The panel holds about 83,000 compounds, 20% with a hit somewhere; the sample as a whole holds those more often.
Returns T if the recorded growth is greater than or equal to 80%, and F otherwise.

Please review the entries below; each comes with its answer.
COc1cc2c3c(c(=O)oc2cc1OS(=O)(=O)c1ccc(C(F)(F)F)cc1)CCCCC3; F
O=C(/C=C/c1ccccc1)n1c(-c2ccc(Cl)cc2)nc2ccccc21; F
NC(=O)c1c(NC(=O)c2ccc3c(c2)OCO3)sc2c1CCC(=O)C2; F
O=S(=O)(NCCCNc1cc(-c2cn(-c3ccccc3)nc2-c2cccc(O)c2)ccn1)c1ccc(Cl)cc1; F
Cc1ccc2nc(-c3c(N)n[nH]c3CCCO)[nH]c(=O)c2c1; T

## Task Does COc1ccc(/C=C/C(=O)c2cccc(B(O)O)c2)cc1O have a reported growth of at least 80%?
## Result F

## Task Does Nc1nc(N)c2nc(CNc3ccc(C(=O)CC(CCC(=O)O)C(=O)O)cc3)cnc2n1 (stereo unspecified) have a reported growth of at least 80%?
## Result T

* * *

- System: SK-MEL-2 melanoma
- Test Summary: NCI-60 one-dose screen, 48 h
- Condition Context: 10 µM unless noted
This is part of a sample that, as a whole, favours compounds with a hit. Of some 83,000 tested, about 20% had one in any assay. The source made the active and inactive calls. Rule for the calls: active = growth percent below 10; inactive = the rest.
Return exactly one item of True for active, False for inactive

Cc1sc2nc(CSc3nnc(-c4ccco4)o3)[nH]c(=O)c2c1C; False
C=C1C(=O)O[C@H]2[C@H]1CC/C(COC(=O)NCCc1cccc(OC)c1)=C\CC[C@@]1(C)O[C@@H]21; False
CCN(Cc1ccccc1)c1ccc(SC#N)cc1; False
CSc1nc(-c2cc3ccccc3o2)cc(-c2ccc(Cl)cc2)c1C#N; False
COc1cc(-c2csc(NC(=O)c3cc(C(F)(F)F)cc(C(F)(F)F)c3)n2)cc(OC)c1OC; False

## Task Recorded test outcome, item COc1ccc(OC)c(NC(=O)c2cc(S(=O)(=O)N3CCc4ccccc43)ccc2OC)c1
## Result False

## Task Recorded test outcome, item CCN1C(=O)N[C@H]2[C@@H]3NC(=O)c4ccc(Cl)n4[C@@H]3C[C@]21O
## Result True

## Task Recorded test outcome, item COc1ccc(/C=C/C(=O)c2cccc(B(O)O)c2)cc1O
## Result False

## Task Recorded test outcome, item Cn1c(C(N)=O)cc2c1-c1nc(NC3CCCCC3)ncc1CCC2
## Result False

## Task Recorded test outcome, item CC(=O)Nc1nc(C(=O)N2N=C(C)/C(=C/c3ccc(Cl)cc3)C2=O)cs1
## Result False

## Task Recorded test outcome, item O=S(=O)(NCCCNc1cc(-c2cn(-c3ccccc3)nc2-c2cccc(O)c2)ccn1)c1ccc(Cl)cc1
## Result True

## Task Recorded test outcome, item Nc1c(C(=O)c2ccc(F)cc2)sc2nc3c(cc12)CCCC3
## Result False

## Task Recorded test outcome, item CCCCOc1nc2c(C)cccc2cc1C1CNC(=O)c2ccccc2N1 (stereo not drawn)
## Result False

## Task Recorded test outcome, item COc1ccc(OC)c(-c2ccc(-c3ccccc3N)c3[nH]c4ccccc4c23)c1
## Result False

## Task Recorded test outcome, item CC/C=C\C/C=C\C[C@H](O)C/C=C1/C(=O)C=C[C@H]1C/C=C\CCC(=O)OC
## Result False
